Target: T1, mANGPTL3(17-455)-His (Mus musculus, UniProt Q9R182 17-455)
T1 construct: Bought protein (R&D Systems); also called full-length mature ANGPTL3 from Mus musculus with a C-terminal decahistidine tag
T1 sequence: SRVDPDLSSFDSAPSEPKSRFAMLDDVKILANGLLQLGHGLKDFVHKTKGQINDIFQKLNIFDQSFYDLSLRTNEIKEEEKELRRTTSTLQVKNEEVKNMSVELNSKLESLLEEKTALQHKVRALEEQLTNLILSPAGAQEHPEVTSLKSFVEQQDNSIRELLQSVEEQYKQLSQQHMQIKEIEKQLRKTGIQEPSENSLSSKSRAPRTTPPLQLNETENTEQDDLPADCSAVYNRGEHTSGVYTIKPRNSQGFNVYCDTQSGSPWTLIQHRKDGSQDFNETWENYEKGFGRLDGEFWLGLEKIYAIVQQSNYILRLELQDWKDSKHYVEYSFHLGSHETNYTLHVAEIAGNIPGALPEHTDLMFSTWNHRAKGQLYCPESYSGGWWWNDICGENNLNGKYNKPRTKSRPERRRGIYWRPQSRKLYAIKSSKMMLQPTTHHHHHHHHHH
Test: SPR Biacore, antigen captured, 37C, pH 7.4, HBS-EP
MEASURED_QUANTITY: kon (M⁻¹ s⁻¹)
Give bare numbers, in M⁻¹ s⁻¹.

For the binder shown here, H4H1279P (antibody, IgG4, V domains shown) VH: QVQLVESGGGLVKPGGSLRLSCAASGFTFSDYYMSWIRQAPGKGLEWVSYIGSSGVNMYYADSVKGRFTISRDNAKNSLYLEMNSLRAEDTAVYYCARDSSQLGFDYWGQGTLVTVSS VL: DIQMTQSPSSLSASVGDRVTITCRTSQNIINFLNWYQQKPGKAPKLLIYTTSTLQSGVPSRFSGSGSGTDFTLSINSLQPEDFATYFCQQTYSNPLTFGGGTKLEIKR , give the reported kon. 2.15e+06
